STUDY_SYSTEM: human CCR8 (human, UniProt P51685 1-355)
Sequence (P51685 whole entry): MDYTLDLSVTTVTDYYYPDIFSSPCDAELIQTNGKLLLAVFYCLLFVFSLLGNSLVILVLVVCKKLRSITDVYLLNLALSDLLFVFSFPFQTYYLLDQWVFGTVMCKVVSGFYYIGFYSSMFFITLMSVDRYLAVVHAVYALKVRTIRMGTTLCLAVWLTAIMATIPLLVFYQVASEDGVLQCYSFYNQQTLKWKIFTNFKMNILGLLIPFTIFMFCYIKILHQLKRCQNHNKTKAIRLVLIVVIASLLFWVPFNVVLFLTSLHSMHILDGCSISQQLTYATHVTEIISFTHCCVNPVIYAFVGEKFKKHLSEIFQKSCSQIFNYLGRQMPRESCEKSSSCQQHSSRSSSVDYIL
ASSAY: cell-based or functional assay
Recorded IC50 antagonism of EC80 Human CCL1 Gα15/16 Biosensor for the following binders
The answer is to be given in nM; state only the numeric part.

Consider the worked cases shown below.
| BINDER | UNIT_ABBREVIATION | QUANTITATIVE_RESULT |
| --- | --- | --- |
| ADI-40360 (antibody, V domains shown) VH: QLQLQESGPGLVKPSETLSLTCTVSGGSISSSSYAWGWIRQPPGKRLEWIGSIYYTGSTYYNPSLKSRVTISVDTSKNQFSLKLSSVTAADTAVYYCVRGHRRDYIAFDIWGQGTMVTVSS VL: DIQMTQSPSSLSASVGDRVTITCRASQSISSYLNWYQQKPGKAPKLLIYAASSLQSGVPSRFSGSGSGTDFTLTISSLQPEDFATYYCQQSHNLPTFGGGTKVEIK | nM | 1.78 |
| ADI-40352 (antibody, V domains shown) VH: QLQLQESGPGLVKPSETLSLTCTVSGGSISSSSYAWGWIRQPPGKRLEWIGSIYYTGSTYYNPSLKSRVTISVDTSKNQFSLKLSSVTAADTAVYYCLRGHRRDYIAFDIWGQGTMVTVSS VL: DIQMTQSPSSLSASVGDRVTITCRASQSISSYLNWYQQKPGKAPKLLIYAASSLQSGVPSRFSGSGSGTDFTLTISSLQPEDFATYYCQQSHNLPTFGGGTKVEIK | nM | 0.439 |
| ADI-46663 (antibody, V domains shown) VH: EVQLVESGGGLVQPGGSLRLSCAASGFTFNAYAMNWVRQAPGKGLEWVARIRSKSNNYATYYADSVKDRFTISRDDSKNSLYLQMNSLKTEDTAVYYCVRQSYGNSNYAMDYWGQGTTVTVSS VL: DIVMTQSPLSLPVTPGEPASISCRSSKSLLHSNGNTYLYWYLQKPGQSPQLLIYRMSNLASGVPDRFSGSGSGTDFTLKISRVEAEDVGVYYCMQHLEYPFTFGGGTKVEIK | nM | 1.26 |

query: # lookup: IC50 antagonism of EC80 Human CCL1 Gα15/16 Biosensor of ADI-40327 (antibody, V domains shown) VH: QVQLQESGPGLVKPSETLSLTCAVSGYSISSGYYWGWIRQPPGKGLEWIGSIYHSGNTYYRPSLKSRVTISVDTSKNQFSLKLSSVTAADTAVYYCARGKGGSWTAFGPWGQGTLVTVSS VL: DIQMTQSPSSLSASVGDRVTITCRASQSISSFLNWYQQKPGKAPKLLISAASSLQSGVPSRFSGSGSGTDFTLTISSLQPEDFATYYCQQGHSTPPTFGGGTKVEIK
result: 4.61
